Taken from paper PMC6231190.

METHOD_NOTES: Aqueous solubility
Format: physicochemical
CONDITION: potassium phosphate buffer, pH 7.4, solubility (μM)
REPORTED_ENDPOINT: solubility

COMPOUND_SMILES | READING
CC(C)N1CCC(NC2CCN(c3cccc(-c4cc5cc(F)ccc5[nH]4)c3)CC2)CC1 | > 300 µM

solubility measured on `CN1CCN(C2(CNC3CCN(c4cccc(-c5cc6cc(F)ccc6[nH]5)c4)CC3)CCC2)CC1` = > 300 µM

---

METHOD_NOTES: Metabolic stability in human liver microsomes
Assay type: in vitro ADME
CONDITION: pH 7.4, HLM (t1/2, min)
REPORTED_ENDPOINT: half-life at 10 µM

half-life at 10 µM measured on `CN1CCN(C2(CNC3CCN(c4cccc(-c5cc6cc(F)ccc6[nH]5)c4)CC3)CCC2)CC1` = > 4.5 h
